test system: Streptococcus pneumoniae; assay: Antibacterial activity against levofloxacin-susceptible Streptococcus pneumoniae by CLSI M100-S18 method; assay type: functional
measuredMetric: MIC50 (mg/L)
Expressed in mg/L, but write only the number.

N[C@@H]1CCCCN(c2c(F)cc3c(=O)c(C(=O)O)cn(C4CC4)c3c2Cl)C1    0.03

Value of measured MIC50 for the entry CC[C@H]1OC(=O)[C@H](C)[C@@H](O[C@H]2C[C@@](C)(OC)[C@@H](O)[C@H](C)O2)[C@H](C)[C@@H](O[C@@H]2O[C@H](C)C[C@H](N(C)C)[C@H]2O)[C@](C)(O)C[C@@H](C)CN(C)[C@H](C)[C@@H](O)[C@]1(C)O : 0.06

Value of measured MIC50 for the entry C[C@H]1COc2c(N3CCN(C)CC3)c(F)cc3c(=O)c(C(=O)O)cn1c23.C[C@H]1COc2c(N3CCN(C)CC3)c(F)cc3c(=O)c(C(=O)O)cn1c23.O : 0.5

Value of measured MIC50 for the entry NC[C@H]1O[C@H](O[C@H]2[C@H](O)[C@@H](O[C@H]3O[C@H](CO)[C@@H](O)[C@H](N)[C@H]3O)[C@H](N)C[C@@H]2N)[C@H](N)C[C@@H]1O : 8

* * *

tested on: Staphylococcus saprophyticus; assay: Antibacterial activity against Staphylococcus saprophyticus by CLSI M100-S18 method; type: functional
Measured MIC90 of individual entries
Expressed in µg/mL, but write only the number.

COc1c(N2CCNC(C)C2)c(F)cc2c(=O)c(C(=O)O)cn(C3CC3)c12 (stereo unspecified)    0.25
C[C@H]1COc2c(N3CCN(C)CC3)c(F)cc3c(=O)c(C(=O)O)cn1c23.C[C@H]1COc2c(N3CCN(C)CC3)c(F)cc3c(=O)c(C(=O)O)cn1c23.O    0.5
NC[C@H]1O[C@H](O[C@H]2[C@H](O)[C@@H](O[C@H]3O[C@H](CO)[C@@H](O)[C@H](N)[C@H]3O)[C@H](N)C[C@@H]2N)[C@H](N)C[C@@H]1O    0.06

Value of measured MIC90 for the entry N[C@@H]1CCCCN(c2c(F)cc3c(=O)c(C(=O)O)cn(C4CC4)c3c2Cl)C1 : 0.12

Value of measured MIC90 for the entry Cc1onc(-c2ccccc2)c1C(=O)N[C@@H]1C(=O)N2[C@@H]1SC(C)(C)[C@@H]2C(=O)O : 1

* * *

system: Acinetobacter baumannii; test: Antibacterial activity against Acinetobacter baumannii assessed as percent susceptible isolates by CLSI M7-A7 method; type: functional
measuredMetric: Activity (%)
Expressed in %, but write only the number.

CC(C)(O/N=C(\C(=O)N[C@@H]1C(=O)N2C(C(=O)[O-])=C(C[n+]3ccccc3)CS[C@H]12)c1csc(N)n1)C(=O)O    39.6

Value of measured Activity for the entry NC[C@H]1O[C@H](O[C@H]2[C@H](O)[C@@H](O[C@H]3O[C@H](CO)[C@@H](O)[C@H](N)[C@H]3O)[C@H](N)C[C@@H]2N)[C@H](N)C[C@@H]1O : 60.4

Value of measured Activity for the entry C[C@@H](O)[C@H]1C(=O)N2C(C(=O)O)=C(SCCNC=N)C[C@H]12 [IMIPENEM ANHYDROUS] : 54.7

Value of measured Activity for the entry C[C@H]1COc2c(N3CCN(C)CC3)c(F)cc3c(=O)c(C(=O)O)cn1c23.C[C@H]1COc2c(N3CCN(C)CC3)c(F)cc3c(=O)c(C(=O)O)cn1c23.O : 37.7

* * *

tested on: Klebsiella aerogenes; assay: Antibacterial activity against Enterobacter aerogenes assessed as percent susceptible isolates by CLSI M7-A7 method; assay type: functional
measuredMetric: Activity

Solved cases below.
NC[C@H]1O[C@H](O[C@H]2[C@H](O)[C@@H](O[C@H]3O[C@H](CO)[C@@H](O)[C@H](N)[C@H]3O)[C@H](N)C[C@@H]2N)[C@H](N)C[C@@H]1O [TOBRAMYCIN]    100%
C[C@H]1COc2c(N3CCN(C)CC3)c(F)cc3c(=O)c(C(=O)O)cn1c23.C[C@H]1COc2c(N3CCN(C)CC3)c(F)cc3c(=O)c(C(=O)O)cn1c23.O [LEVOFLOXACIN]    80%
CC(C)(O/N=C(\C(=O)N[C@@H]1C(=O)N2C(C(=O)[O-])=C(C[n+]3ccccc3)CS[C@H]12)c1csc(N)n1)C(=O)O [CEFTAZIDIME]    62%

Could you now look at the following molecule, please?
Value of measured Activity for the entry C[C@@H](O)[C@H]1C(=O)N2C(C(=O)O)=C(SCCNC=N)C[C@H]12 [IMIPENEM ANHYDROUS] : 88%

* * *

system: Proteus mirabilis; assay: Antibacterial activity against Proteus mirabilis by CLSI M7-A7 method; type: functional
Measured MIC50 of individual entries
Expressed in µg/mL, but write only the number.

NC[C@H]1O[C@H](O[C@H]2[C@H](O)[C@@H](O[C@H]3O[C@H](CO)[C@@H](O)[C@H](N)[C@H]3O)[C@H](N)C[C@@H]2N)[C@H](N)C[C@@H]1O    1
C[C@H]1COc2c(N3CCN(C)CC3)c(F)cc3c(=O)c(C(=O)O)cn1c23.C[C@H]1COc2c(N3CCN(C)CC3)c(F)cc3c(=O)c(C(=O)O)cn1c23.O    0.03
N[C@@H]1CCCCN(c2c(F)cc3c(=O)c(C(=O)O)cn(C4CC4)c3c2Cl)C1    0.25

Value of measured MIC50 for the entry C[C@@H](O)[C@H]1C(=O)N2C(C(=O)O)=C(SCCNC=N)C[C@H]12 [IMIPENEM ANHYDROUS] : 1

* * *

test system: Streptococcus pneumoniae; assay: Antibacterial activity against levofloxacin susceptible Streptococcus pneumoniae assessed as percent susceptible isolates by CLSI M100-S18 method; format: functional
measuredMetric: Activity

Value of measured Activity for the entry CC[C@H]1OC(=O)[C@H](C)[C@@H](O[C@H]2C[C@@](C)(OC)[C@@H](O)[C@H](C)O2)[C@H](C)[C@@H](O[C@@H]2O[C@H](C)C[C@H](N(C)C)[C@H]2O)[C@](C)(O)C[C@@H](C)CN(C)[C@H](C)[C@@H](O)[C@]1(C)O : 62.5%

* * *

system: Haemophilus influenzae; assay: Antibacterial activity against ciprofloxacin-susceptible Haemophilus influenzae by CLSI M7-A7 method; type: functional
measuredMetric: MIC90 (µg/mL)
Expressed in µg/mL, but write only the number.

Solved cases below.
C[C@H]1COc2c(N3CCN(C)CC3)c(F)cc3c(=O)c(C(=O)O)cn1c23.C[C@H]1COc2c(N3CCN(C)CC3)c(F)cc3c(=O)c(C(=O)O)cn1c23.O    0.015
NC[C@H]1O[C@H](O[C@H]2[C@H](O)[C@@H](O[C@H]3O[C@H](CO)[C@@H](O)[C@H](N)[C@H]3O)[C@H](N)C[C@@H]2N)[C@H](N)C[C@@H]1O    8
N[C@@H]1CCCCN(c2c(F)cc3c(=O)c(C(=O)O)cn(C4CC4)c3c2Cl)C1    0.03

Could you now look at the following compound, please?
Item: CC[C@H]1OC(=O)[C@H](C)[C@@H](O[C@H]2C[C@@](C)(OC)[C@@H](O)[C@H](C)O2)[C@H](C)[C@@H](O[C@@H]2O[C@H](C)C[C@H](N(C)C)[C@H]2O)[C@](C)(O)C[C@@H](C)CN(C)[C@H](C)[C@@H](O)[C@]1(C)O | System: Haemophilus influenzae | MIC90: 2

* * *

test system: Cutibacterium acnes; assay: Antibacterial activity against Propionibacterium acnes assessed as percent susceptible isolates by CLSI M11-A7 method; type: functional
Calls of active or inactive are those of the source. The rule behind the calls is not given here.
measuredMetric: Activity

COc1c(N2CCNC(C)C2)c(F)cc2c(=O)c(C(=O)O)cn(C3CC3)c12 (centres undefined) [GATIFLOXACIN]    inactive
N[C@@H]1CCCCN(c2c(F)cc3c(=O)c(C(=O)O)cn(C4CC4)c3c2Cl)C1 [BESIFLOXACIN]    inactive
CCC[C@@H]1C[C@@H](C(=O)N[C@@H]([C@H]2O[C@H](SC)[C@H](O)[C@@H](O)[C@H]2O)[C@H](C)Cl)N(C)C1 [CLINDAMYCIN]    100%
Cc1ncc([N+](=O)[O-])n1CCO [METRONIDAZOLE]    0%

* * *

test system: Streptococcus salivarius; assay: Antibacterial activity against Streptococcus salivarius by CLSI M100-S18 method; type: functional
measuredMetric: MIC90 (µg/mL)
Expressed in µg/mL, but write only the number.

Solved cases below.
COc1c(N2CCNC(C)C2)c(F)cc2c(=O)c(C(=O)O)cn(C3CC3)c12 (stereo unspecified)    1
CC[C@H]1OC(=O)[C@H](C)[C@@H](O[C@H]2C[C@@](C)(OC)[C@@H](O)[C@H](C)O2)[C@H](C)[C@@H](O[C@@H]2O[C@H](C)C[C@H](N(C)C)[C@H]2O)[C@](C)(O)C[C@@H](C)CN(C)[C@H](C)[C@@H](O)[C@]1(C)O    1
N[C@@H]1CCCCN(c2c(F)cc3c(=O)c(C(=O)O)cn(C4CC4)c3c2Cl)C1    0.12
CC1(C)S[C@@H]2[C@H](NC(=O)Cc3ccccc3)C(=O)N2[C@H]1C(=O)O    32

Value of measured MIC90 for the entry C[C@H]1COc2c(N3CCN(C)CC3)c(F)cc3c(=O)c(C(=O)O)cn1c23.C[C@H]1COc2c(N3CCN(C)CC3)c(F)cc3c(=O)c(C(=O)O)cn1c23.O : 4

Data provenance: ChEMBL document CHEMBL1649565
